Taken from paper PMC7280082.

# Test system: HIV-1 F227L + V106A double-mutant strain
# ASSAY SUMMARY: microbe, parasite or virus in culture
# Assay type: cell-based
# EXPERIMENTAL SETUP: Human immunodeficiency virus 1, MT4, read-out: EC50 F227L + V106A
RECORDED METRIC: EC50 (nM)
Write the answer as a number in nM, unit excluded.

// sample Cc1cc(-c2ccc(C#N)cc2)cc(C)c1Oc1nc(NC2CCN(Cc3ccc(S(N)(=O)=O)cc3)CC2)nc2ccsc12 , its EC50 was 59.9

Per the record, Cc1cc(-c2cccs2)cc(C)c1Oc1nc(NC2CCN(Cc3ccc(C(N)=O)cc3)CC2)nc2ccsc12 has EC50 of 1090

Measured EC50 of Cc1cc(-c2cccc(N(C)C)c2)cc(C)c1Oc1nc(NC2CCN(Cc3ccc(C(N)=O)cc3)CC2)nc2ccsc12 : 783

Lab note: measured EC50 of Cc1cc(-c2ccc(F)cc2)cc(C)c1Oc1nc(NC2CCN(Cc3ccc(S(N)(=O)=O)cc3)CC2)nc2ccsc12 was 46.6

Reported EC50 for Cc1cc(-c2cccc(N(C)C)c2)cc(C)c1Oc1nc(NC2CCN(Cc3ccc(S(N)(=O)=O)cc3)CC2)nc2ccsc12 was 2160

Cc1cc(-c2ccccc2)cc(C)c1Oc1nc(NC2CCN(Cc3ccc(C(N)=O)cc3)CC2)nc2ccsc12 yielded EC50 of 395

Recorded EC50 (compound Cc1cc(-c2ccc(N(C)C)cc2)cc(C)c1Oc1nc(NC2CCN(Cc3ccc(C(N)=O)cc3)CC2)nc2ccsc12 ): 1250

// field: EC50; key: Cc1cc(-c2ccoc2)cc(C)c1Oc1nc(NC2CCN(Cc3ccc(C(N)=O)cc3)CC2)nc2ccsc12 ; value = 525

Per the record, Cc1cc(-c2ccsc2)cc(C)c1Oc1nc(NC2CCN(Cc3ccc(C(N)=O)cc3)CC2)nc2ccsc12 has EC50 of 854

The value of EC50 measured for the compound Cc1cc(-c2ccco2)cc(C)c1Oc1nc(NC2CCN(Cc3ccc(C(N)=O)cc3)CC2)nc2ccsc12 turned out to be 1110

According to the records, this compound Cc1cc(-c2ccco2)cc(C)c1Oc1nc(NC2CCN(Cc3ccc(S(N)(=O)=O)cc3)CC2)nc2ccsc12 displays EC50 of 85.7

The reported EC50 of the compound Cc1cc(-c2cccc(C#N)c2)cc(C)c1Oc1nc(NC2CCN(Cc3ccc(S(N)(=O)=O)cc3)CC2)nc2ccsc12 was 49.2

Entry Cc1cc(-c2ccoc2)cc(C)c1Oc1nc(NC2CCN(Cc3ccc(S(N)(=O)=O)cc3)CC2)nc2ccsc12 ; EC50 = 358
